# System: Rattus norvegicus
# PROTOCOL DESCRIPTION: Blood pressure lowering activity in renal hypertensive rats after peroral administration
# Type: functional
Exercise: state measured Activity for each of the molecules provided.
Hi! Could you send only the number? It should be in mg/kg, unit omitted.

Entry CCCCc1nc(C(F)(F)F)c(CO)n1Cc1ccc(-c2ccccc2C(=O)O)cc1 — recorded Activity = 30

For CCCCc1nc(Cl)c(COC)n1Cc1ccc(-c2ccccc2C(=O)O)cc1 the molecule record lists Activity as 100

Consider CCCCc1nc(Cl)c(COC)n1Cc1ccc(-c2ccccc2-c2nn[nH]n2)cc1 . Its measured Activity is 3

What the record says about CCCCc1nc(Cl)c(/C=N/NS(=O)(=O)c2ccccc2)n1Cc1ccc(-c2ccccc2-c2nn[nH]n2)cc1 : Activity is 30

Short answer for CCCCc1nc(Cl)c(COC(C)=O)n1Cc1ccc(-c2ccccc2C(=O)O)cc1 : Activity was 100

Entry under test: CCCc1nc(Cl)c(CO)n1Cc1ccc(-c2ccccc2C(=O)O)cc1 . Its Activity was 30

// field: Activity; key: CCCCc1nc(Cl)c(C(=O)N(C)C)n1Cc1ccc(-c2ccccc2C(=O)O)cc1 ; value = 10

Note to self: Activity recorded for CCCCc1nc(Cl)c(CO)n1Cc1ccc(-c2ccccc2NS(=O)(=O)C(F)(F)F)cc1 was 100

# Activity of CCCCc1nc(Cl)c(CO)n1Cc1ccc(-c2cccc(C(=O)O)c2)cc1 = 100

get_value(item= CCCCc1nc(I)c(CO)n1Cc1ccc(-c2ccccc2C(=O)O)cc1 , readout=Activity) returns 100

Noted for CCCCc1nc(Cl)c(C=O)n1Cc1ccc(-c2cccc(-c3nn[nH]n3)c2)cc1 : its Activity reads 30

Measured Activity of CCCCc1nc(Cl)c(CNC(=O)OCC)n1Cc1ccc(-c2ccccc2C(=O)O)cc1 : 100

Please fill in: Activity reported for C=CCOC(=O)NCc1c(Cl)nc(CCCC)n1Cc1ccc(-c2ccccc2C(=O)O)cc1 = 100

For reference, reported Activity for CCCCc1nc(Cl)c(CO)n1Cc1ccc(-c2c(OC)cccc2C(=O)O)cc1 stands at 100

molecule CCCCCc1nc(Cl)c(CO)n1Cc1ccc(-c2ccccc2C(=O)O)cc1 , Activity observed: 30

Entry under test: CCCCc1nc(Cl)c(CO)n1Cc1ccc(-c2ccccc2-c2n[nH]c(C(F)(F)F)n2)cc1 . Its Activity was 10

# molecule CCCCc1nc(I)c(CO)n1Cc1ccc(-c2ccccc2-c2nn[nH]n2)cc1 ; its Activity = 10

* * *

For each record, write down the corresponding pKa.
# PROTOCOL DESCRIPTION: Ionization constant for the compound
# Type: physicochemical, Rattus norvegicus
A bare number is all that is needed in reply.

Short answer for CCCCc1nc(Cl)c(COC)n1Cc1ccc(-c2ccccc2-c2nn[nH]n2)cc1 : pKa was 6

Record CCCCc1nc(Cl)c(CO)n1Cc1ccc(-c2ccccc2C(=O)O)cc1 , field pKa: 5

The reported value for CCCCc1nc(Cl)c(CO)n1Cc1ccc(-c2ccccc2C(=O)NOC)cc1 in terms of pKa is 10.9

Looking up CCCCc1nc(Cl)c(CO)n1Cc1ccc(-c2ccccc2-c2[nH]nnc2C(=O)OC)cc1 , I found its pKa recorded as 7

Value of measured pKa for the entry CCCCc1nc(Cl)c(CO)n1Cc1ccc(-c2ccccc2C(=O)NS(=O)(=O)c2ccccc2)cc1 : 8.44

The reported pKa of the molecule CCCCc1nc(Cl)c(COC)n1Cc1ccc(-c2ccccc2NS(=O)(=O)C(F)(F)F)cc1 was 4.5

Measured pKa, CCCCc1nc(Cl)c(CO)n1Cc1ccc(-c2ccccc2C(=O)NO)cc1 : 10.5

So, CCCCc1nc(Cl)c(CO)n1Cc1ccc(-c2ccccc2-c2nnn[nH]2)cc1 ? Its pKa was 6

Form: molecule = CCCCc1nc(Cl)c(CO)n1Cc1ccc(-c2ccccc2NC(=O)C(F)(F)F)cc1 ; pKa = 9.5
